Biological target: B2 receptor (Homo sapiens, UniProt P30411)
Construct: expressed in transfected cells
Sequence (P30411 1-391): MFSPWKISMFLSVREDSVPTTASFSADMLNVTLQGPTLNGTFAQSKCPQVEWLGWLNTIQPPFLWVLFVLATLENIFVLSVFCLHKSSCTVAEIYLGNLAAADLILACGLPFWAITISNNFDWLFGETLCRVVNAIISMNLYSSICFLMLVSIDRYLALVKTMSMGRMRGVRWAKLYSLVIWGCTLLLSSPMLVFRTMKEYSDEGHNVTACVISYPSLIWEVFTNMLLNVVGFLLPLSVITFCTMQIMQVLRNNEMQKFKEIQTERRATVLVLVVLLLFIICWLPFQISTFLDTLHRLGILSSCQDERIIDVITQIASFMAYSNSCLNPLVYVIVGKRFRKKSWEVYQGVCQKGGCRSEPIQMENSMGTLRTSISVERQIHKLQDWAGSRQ
Experiment: Human B2 binding, human BK2 clone membranes, 3H-Bradykinin
Conditions: 0.3 nM 3H-Bradykinin, i.a. = inactive, read-out: Human Binding - pIC50 B2 (converted)
Square brackets hold non-standard residues; d marks the D form. Peptide text beside a SMILES is read from it. Gly(cPent) = N[C@H](C(=O)O)C1CCCC1; Hyp = O=C(O)[C@@H]1C[C@@H](O)CN1; Tic = O=C(O)[C@@H]1Cc2ccccc2CN1; dTic = O=C(O)[C@H]1Cc2ccccc2CN1; 2Thi = N[C@@H](Cc1cccs1)C(=O)O
IC50 reference
endpoint-name: IC50

[
  {
    "molecule": "N=C(N)NCCC[C@@H](N)C(=O)N[C@@H](CCCNC(=N)N)C(=O)N1CCC[C@H]1C(=O)N1C[C@H](O)C[C@H]1C(=O)NCC(=O)N[C@H](C(=O)N[C@@H](CO)C(=O)N1Cc2ccccc2C[C@H]1C(=O)N[C@H](C(=O)O)C1CCCC1)C1CCCC1 [B9004, DArg-Arg-Pro-Hyp-Gly-Cpg-Ser-Tic-Cpg] (H-[dR]RP[Hyp]G[Gly(cPent)]S[Tic][Gly(cPent)]-OH)",
    "endpoint-name": "IC50",
    "value": "1580 nM"
  },
  {
    "molecule": "N=C(N)NCCC[C@@H](N)C(=O)N[C@@H](CCCNC(=N)N)C(=O)N1CCC[C@H]1C(=O)N1C[C@H](O)C[C@H]1C(=O)NCC(=O)N[C@@H](Cc1cccs1)C(=O)N[C@@H](CO)C(=O)N1Cc2ccccc2C[C@H]1C(=O)N[C@H](C(=O)O)C1CCCC1 [B9006, DArg-Arg-Pro-Hyp-Gly-Thi-Ser-Tic-Cpg] (H-[dR]RP[Hyp]G[2Thi]S[Tic][Gly(cPent)]-OH)",
    "endpoint-name": "IC50",
    "value": "631 nM"
  },
  {
    "molecule": "N=C(N)NCCC[C@@H](N)C(=O)N[C@@H](CCCNC(=N)N)C(=O)N1CCC[C@H]1C(=O)N1C[C@H](O)C[C@H]1C(=O)NCC(=O)N[C@H](C(=O)N[C@@H](CO)C(=O)N1Cc2ccccc2C[C@@H]1C(=O)N[C@H](C(=O)O)C1CCCC1)C1CCCC1 [B9066, DArg-Arg-Pro-Hyp-Gly-Cpg-Ser-DTic-Cpg] (H-[dR]RP[Hyp]G[Gly(cPent)]S[dTic][Gly(cPent)]-OH)",
    "endpoint-name": "IC50",
    "value": "1260 nM"
  }
]
